Tested on: RXF 393 renal
PROCEDURE_TEXT: NCI tumour cell line growth inhibition, 48 h
// reported TGI for each item listed

>  <MOLECULE>
Cc1cc(Cl)nc(NC(=O)CSc2ccc(Cl)cc2)n1

>  <TARGET_OR_SYSTEM>
RXF 393 renal

>  <TGI>
> 100 µM

$$$$
>  <MOLECULE>
c1ccc(N/N=C2\CC(c3ccccc3)Oc3ccccc32)cc1 (stereo not given)

>  <TARGET_OR_SYSTEM>
RXF 393 renal

>  <TGI>
75.3 µM

$$$$

Please turn your attention to the following entry.
Task: Could you tell me which TGI is on file for C=CCNC1=C2C[C@@H](C)C[C@@H](OC)[C@H](OC(=O)CN(C)C)[C@H](C)/C=C(\C)[C@@H](OC(N)=O)[C@H](OC)/C=C\C=C(/C)C(=O)NC(=CC1=O)C2=O ?
Output: > 41.3 µM

----------
Test system: EKVX NSCLC
PROCEDURE_TEXT: NCI tumour cell line growth inhibition, 48 h
METRIC_NAME: TGI

Consider the worked cases shown below.
>  <COMPOUND>
CS(=O)(=O)c1nc(N)nc2nc[nH]c12

>  <METRIC_NAME>
TGI

>  <OBSERVED_RESULT>
> 100 µM

$$$$
>  <COMPOUND>
CCOC(=O)C(NNS(=O)(=O)c1ccc(C)cc1)S(=O)(=O)C(F)(F)C(F)(F)C(F)(F)C(F)(F)F (stereo unspecified)

>  <METRIC_NAME>
TGI

>  <OBSERVED_RESULT>
> 100 µM

$$$$
>  <COMPOUND>
O=C(CCl)N1CCCCC1C1(c2cc3ccccc3[nH]2)OCCO1 (stereo unspecified)

>  <METRIC_NAME>
TGI

>  <OBSERVED_RESULT>
5.74 µM

$$$$
>  <COMPOUND>
CC(=O)[O-].CC(=O)[O-].[Mn+2].c1ccc(/C(=N\Nc2ccccn2)c2ccccn2)cc1

>  <METRIC_NAME>
TGI

>  <OBSERVED_RESULT>
19.9 µM

$$$$
>  <COMPOUND>
Cc1[nH]c2c(C)ccc(C)c2c1CC(=O)O

>  <METRIC_NAME>
TGI

>  <OBSERVED_RESULT>
> 100 µM

$$$$

Task: Could you tell me which TGI is on file for CON(C)C(=O)C(Cc1ccccc1)NC(=O)OC(C)(C)C (stereo unspecified) ?
Output: > 100 µM

Task: Now the compound CCCCOC(=O)CN1C(=O)c2ccccc2C1=O
Output: > 100 µM

Task: Now the compound O=C1CC2[C@@H](N3CCCC3)CCC(N1Cc1ccccc1)C2(O)O (stereo partly specified)
Output: > 100 µM

Task: Now the compound CC1=C(C)SC(=C2Sc3c(n(C)c(=O)[nH]c3=O)S2)S1
Output: > 100 µM

Task: Now the compound N=c1nc(N)c2cc3c(N)nc(=N)c3cc12
Output: 75.3 µM

Task: Now the compound CCCCCCCC[N+](C)(C)Cc1ccc(C[N+](C)(C)CCCCCCCC)cc1
Output: > 100 µM

Task: Now the compound COc1cccc2c1C(=O)C(=O)c1c-2oc(=O)c2cc(C)cc(OC)c12
Output: > 75 µM

Task: Now the compound O=C1C(=O)c2cc([N+](=O)[O-])ccc2-c2ccccc21
Output: 3.16 µM

Task: Now the compound C/C(=N\O)c1sc(-n2nc(-c3ccccc3)cc2-c2ccccc2)nc1C
Output: > 31.6 µM

Task: Now the compound CC1(C)SC2C(C(=O)O)N=C(Cc3ccccc3)N2C1C(=O)O (stereo unspecified)
Output: 29.7 µM

Task: Now the compound COC(=O)C1=CC(O)CCC1c1ccc(OC)cc1 (stereo unspecified)
Output: > 100 µM

Task: Now the compound CCCCCCCC1c2cc3[nH]c(cc4nc(cc5[nH]c(cc(n2)[C@@]1(C)CC(=O)N(C)C)c(C)c5CCC(=O)O)C(CCC(=O)O)=C4C)cc3C (stereo partly specified)
Output: > 100 µM

Task: Now the compound C=CCNC1=C2C[C@@H](C)C[C@@H](OC)[C@H](OC(=O)CN(C)C)[C@H](C)/C=C(\C)[C@@H](OC(N)=O)[C@H](OC)/C=C\C=C(/C)C(=O)NC(=CC1=O)C2=O
Output: 21.8 µM

Task: Now the compound C[C@]12CCC[C@H](OC=O)C1(O)C[C@H](C(=O)O)CC2 (stereo partly specified)
Output: 40.2 µM

Task: Now the compound COC(=O)c1cc(Br)c(C(=O)C(Cl)(Cl)Cl)[nH]1
Output: > 100 µM

Task: Now the compound O=C(OCc1ccccc1)N1CCNCCNCC1
Output: > 100 µM

----------
System: RPMI-8226 leukemia
PROCEDURE_TEXT: NCI tumour cell line growth inhibition, 48 h
METRIC_NAME: TGI

Consider the worked cases shown below.
>  <MOLECULE>
Cc1nc(Nc2nnc(-c3cc([N+](=O)[O-])cc([N+](=O)[O-])c3C)o2)sc1C(=O)CC(=O)Cc1nc2ccc(Cl)cc2[nH]c1=O

>  <TARGET_OR_SYSTEM>
RPMI-8226 leukemia

>  <TGI>
> 100 µM

$$$$
>  <MOLECULE>
Cc1cc(Cl)ccc1Nc1sc(C(=O)c2cc3cc(Cl)ccc3o2)c(N)c1C#N

>  <TARGET_OR_SYSTEM>
RPMI-8226 leukemia

>  <TGI>
> 62.4 µM

$$$$
>  <MOLECULE>
CS(=O)(=O)CCNCc1ccc(-c2ccc3ncnc(Nc4ccc(OCc5ccccc5)c(C(F)(F)F)c4)c3c2)o1

>  <TARGET_OR_SYSTEM>
RPMI-8226 leukemia

>  <TGI>
18.2 µM

$$$$
>  <MOLECULE>
CCCCCCCCCCCCCCCCC1=CC(=O)C=C(OC)C1=O

>  <TARGET_OR_SYSTEM>
RPMI-8226 leukemia

>  <TGI>
> 100 µM

$$$$
>  <MOLECULE>
CN1CCN(C(=O)c2ccc(NC(=O)Nc3ccc(N(C)c4ccnc(Nc5ccc(CS(C)(=O)=O)cc5)n4)cc3)cc2)CC1

>  <TARGET_OR_SYSTEM>
RPMI-8226 leukemia

>  <TGI>
> 25 µM

$$$$

Task: Could you tell me which TGI is on file for CCOC(=O)c1ccc2c(c1)nc1n2C(c2c(F)cccc2F)SC1 (stereo not drawn) ?
Output: > 100 µM

Task: Now the molecule COc1ccc(NC(=O)C(=O)C(CC2C(=O)NC(=S)NC2=O)C(=O)c2ccc3ccccc3c2)c([N+](=O)[O-])c1 (stereo not drawn)
Output: > 100 µM

Task: Now the molecule COc1ccc2[nH]c3c4c(c5cc(C(C)(C)C)ccc5c3c2c1)C(=O)N(c1ccccc1)C4=O
Output: > 100 µM

----------
// reported TGI for each item listed
System: SK-MEL-2 melanoma
PROCEDURE_TEXT: NCI tumour cell line growth inhibition, 48 h

Consider the worked cases shown below.
>  <MOLECULE>
CO/C(=N/N1CC1C(F)(F)F)c1ccncc1 (stereo unspecified)

>  <TGI>
> 100 µM

$$$$
>  <MOLECULE>
CCCCOC(=O)CN1C(=O)c2ccccc2C1=O

>  <TGI>
> 100 µM

$$$$
>  <MOLECULE>
O=C1c2ccccc2C(=O)N1/N=C\c1ccc(Br)cc1

>  <TGI>
> 100 µM

$$$$

Task: Please state recorded TGI (tested on SK-MEL-2 melanoma) of COc1cc(-c2c[nH]c3ccccc23)nc(-c2c[nH]c3ccccc23)n1
Output: 16.2 µM

Task: Now the molecule COC(=O)c1cc(NC2OCC(OC(C)=O)C(OC(C)=O)C2OC(C)=O)nc(SC)c1C(=O)OC (stereo unspecified)
Output: > 100 µM

Task: Now the molecule COC(=O)C1=CC(O)CCC1c1ccc(OC)cc1 (stereo unspecified)
Output: > 100 µM

----------
System: HL-60(TB) leukemia
PROCEDURE_TEXT: NCI tumour cell line growth inhibition, 48 h; in the data active = GI50 below about 0.43 µM; inactive = the rest
Assign a class; possible classes are yes (1) (active), no (0) (inactive)

>  <MOLECULE_SMILES>
CC(C)(Cl)CCC1=C(Cl)C(=O)c2ccccc2C1=O

>  <QUALITATIVE_LABEL>
no (0)

$$$$

Task: Field: outcome | Entry: Nc1ncc(-c2cnn(C3CCNCC3)c2)cc1-c1nc2ccccc2o1
Output: no (0)

Task: Now the compound CCN(Cc1ccc(F)cc1)c1ccc(CO)c(Cl)c1
Output: no (0)

Task: Now the compound CN1CCN(C(=O)c2ccc(NC(=O)Nc3ccc(N(C)c4ccnc(Nc5ccc(CS(C)(=O)=O)cc5)n4)cc3)cc2)CC1
Output: no (0)

Task: Now the compound CCCCCCCCN(CCCCCCCC)C(=N)c1ccnc2ccccc12
Output: no (0)

Task: Now the compound O=C1C=C(Nc2ccccc2)c2ncccc2C1=O
Output: no (0)

Task: Now the compound CN(C)CC/C=C1\c2ccccc2Sc2ccc(Cl)cc21
Output: no (0)

Task: Now the compound COc1ccc(C(=S)c2cc(OC)c(OC)c(OC)c2)cc1OC(=O)CCl
Output: yes (1)
